B1: r16_88_TrROS_Hall (parent)
chain: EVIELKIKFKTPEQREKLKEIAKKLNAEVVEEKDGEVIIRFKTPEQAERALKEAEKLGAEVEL

# Variants of: B1
# TEST DESCRIPTION: folding stability dG (cDNA display proteolysis); higher = more stable
# EXPERIMENTAL CONDITIONS: PBS, room temperature
Reported folding stability dG values for the following variants.
Reply numerically in kcal/mol, unit not repeated.

EVIELKIKFKTPEQREKLKEIAKKINAEVVEEKDGEVIIRFKTPEQAERALKEAEKLGAEVEL [L25I] | 4.46
EVIELKIKFKTPEQREKLKEIAKKLNAEVVEEKDGEVIIRFKTPEQAERALKEAVKLGAEVEL [E55V] | 4.51
EVIELKIKFKTPEQRFKLKEIAKKLNAEVVEEKDGEVIIRFKTPEQAERALKEAEKLGAEVEL [E16F] | 4.73

Input EVIELKIKFKTPEQREKLKEIAKKLNAEVVEEKDGQVIIRFKTPEQAERALKEAEKLGAEVEL [E36Q] . Output folding stability dG: 4.67

Input EVIELKIKFKTPEQREPLKEIAKKLNAEVVEEKDGEVIIRFKTPEQAERALKEAEKLGAEVEL [K17P] . Output folding stability dG: 4.28

Input EVIELKIKFKTPEQREKLKEIAKKLNAYVVEEKDGEVIIRFKTPEQAERALKEAEKLGAEVEL [E28Y] . Output folding stability dG: 4.36

Input EVIELKIKFKTPEQREKLKEIAKKLNAEVVEEKDGEVIIRFKTPEQAERALKEAEKGGAEVEL [L57G] . Output folding stability dG: 3.96
